Catalogue of Kd values
# experimental-system: T1, IFN-αG (human, UniProt P01569 24-189)
# T1 construct: also called IFN-α5; alpha G
# assay: ProteOn, one antigen concentration
API: value field is a number in nM; no unit string.

IFWM3339 (antibody, V domains shown, VH IFWH591, VL IFWL1093; converted mAb; also called IFWB3074) VH: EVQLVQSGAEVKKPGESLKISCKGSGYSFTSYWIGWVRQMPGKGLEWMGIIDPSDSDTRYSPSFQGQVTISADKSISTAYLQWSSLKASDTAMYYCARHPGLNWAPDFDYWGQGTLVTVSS VL: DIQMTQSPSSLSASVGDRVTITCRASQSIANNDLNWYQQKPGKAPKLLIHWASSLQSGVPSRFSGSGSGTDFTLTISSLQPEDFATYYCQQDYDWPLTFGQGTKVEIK : 0.079

Let us move to another entry and its Kd.
Entry under review: IFWM3337 (antibody, V domains shown, VH IFWH591, VL IFWL1087; converted mAb; also called IFWB3072) VH: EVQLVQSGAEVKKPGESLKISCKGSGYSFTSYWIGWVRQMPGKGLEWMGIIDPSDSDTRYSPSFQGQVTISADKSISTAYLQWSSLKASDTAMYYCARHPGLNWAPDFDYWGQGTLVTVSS VL: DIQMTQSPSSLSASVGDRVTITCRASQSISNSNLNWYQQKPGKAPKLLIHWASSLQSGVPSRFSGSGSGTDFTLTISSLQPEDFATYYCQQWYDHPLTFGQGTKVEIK . Reported Kd?
0.034
